system: KM12 colon; test: NCI-60 one-dose screen, 48 h (100 = growth as untreated, 0 = no growth, -100 = all killed); settings: 10 µM unless noted
About 83,000 compounds went through this panel and 20% of them were active in at least one assay; those are over-represented in the sample as a whole.
Criterion: growth meeting or surpassing 50%. Met: T. Not met: F.

Task: For this compound, is measured growth 50% or higher? `Cn1ncc2ccc(-c3nc(-c4ccccc4)[nH]c3-c3n[nH]c(=O)n3C3CC3)cc21`
Output: T

Task: For this compound, is measured growth 50% or higher? `Cn1cc(-c2nn3cc(-c4ccccc4)nc3s2)c2ccccc21`
Output: F

Task: For this compound, is measured growth 50% or higher? `CN1CCN(c2ccc(NC(=O)c3cncnc3Nc3ccc4c(ccn4Cc4cccc(F)c4)c3)cc2)CC1`
Output: F

Task: For this compound, is measured growth 50% or higher? `COc1cc2c(c(OC)c1OC)C(=O)N[C@@H]1[C@@H](O)[C@@H](O)[C@H](O)C[C@@H]21`
Output: T

Task: For this compound, is measured growth 50% or higher? `S=c1[nH]c2cc(Cl)ccc2o1`
Output: T

Task: For this compound, is measured growth 50% or higher? `COc1ccc2cc(-c3ccc(-c4ccc(C(=N)N)s4)s3)ccc2c1`
Output: F

Task: For this compound, is measured growth 50% or higher? CC(C)=CC(=O)N[C@@H]1CC2CCC3C(CC[C@@]4(C)C3CC[C@@H]4C(C)N(C)C)[C@@]2(C)C[C@@H]1O (stereo not given in full)
Output: F

Task: For this compound, is measured growth 50% or higher? `CCOC(=O)Nc1nc2ccc(SCC(C)C)cc2s1`
Output: F

Task: For this compound, is measured growth 50% or higher? `COc1ccc(NC(=O)c2ccc(C(=O)Nc3ccc(OC)cc3OC)cc2)c(OC)c1`
Output: T

----------
test system: SNB-19 CNS; test: NCI-60 one-dose screen, 48 h (100 = growth as untreated, 0 = no growth, -100 = all killed); conditions: 10 µM unless noted
Compounds without any hit were thinned out: in the full panel of roughly 83,000, 20% have a hit.
test.readout: growth (%)
Your answer is read as %, so omit the unit and give the number.

Task: Consider the compound `CC1(C)CC[C@]2(C(=O)O)CC[C@]3(C)C(=CC[C@@H]4[C@@]5(C)C[C@@H](Cc6cn([C@@H]7O[C@H](CO)[C@@H](O)[C@H](O)[C@H]7O)nn6)[C@H](O)C(C)(C)[C@@H]5CC[C@]43C)[C@@H]2C1` and give its measured growth.
Output: 97

Task: Consider the compound `COc1ccc2nc3cc(Cl)ccc3c(NCCN)c2c1` and give its measured growth.
Output: 7.75

Task: Consider the compound `COc1ccc(OC)c(-c2cn3nc(-c4c[nH]c5ccc(Br)cc45)sc3n2)c1` and give its measured growth.
Output: 75.4

Task: Consider the compound `CCOC(=O)C(=Cc1cccc(C#N)c1)C(=O)OCC` and give its measured growth.
Output: 85.1

Task: Consider the compound `CCn1c2ccc(O)cc2c2c(C)c3c[n+](C(C)C)ccc3c(C)c21` and give its measured growth.
Output: 7.71

Task: Consider the compound CC(C(=O)O)n1c(O)c(C=Nc2cccnc2)sc1=S (stereo not given) and give its measured growth.
Output: 91.4

Task: Consider the compound `C#CCOc1ccc2ncnc(Nc3cccc(NC(=O)CCl)c3)c2c1` and give its measured growth.
Output: 71.8

Task: Consider the compound `CCOc1ccc(/C=N\N=C\c2ccc(OCC)cc2)cc1` and give its measured growth.
Output: 98.3

Task: Consider the compound `COc1ccccc1NC(=O)c1ccc(/C=C/C(=O)c2nccn2C)cc1` and give its measured growth.
Output: -84.3

Task: Consider the compound `COc1ccc2[nH]cc(-c3nc(-c4cn(C)c5ccncc45)cs3)c2c1` and give its measured growth.
Output: 14.6

Task: Consider the compound `O=C1NC(=C(Cl)Cl)/C(=N/S(=O)(=O)N2CCCCC2)N1` and give its measured growth.
Output: 60.9

Task: Consider the compound `C=CC(=O)NCCOc1cccc(Nc2cc(NCCCNC(=O)C3CCC3)c(Br)cn2)c1` and give its measured growth.
Output: 5.36

Task: Consider the compound `CCN1CCN(CC(=O)Nc2nc3ccc(NCc4ccc(Br)cc4)cc3s2)CC1` and give its measured growth.
Output: 76.3

Task: Consider the compound `CC1(C)CCC(S(=O)(=O)c2ccc3c(c2)/C(=N\O)c2cc(S(=O)(=O)N4CCN(c5ccc(F)cc5O)CC4)ccc2-3)CC1` and give its measured growth.
Output: -72.7

Task: Consider the compound `O=C(Nc1cccc(NC(=O)C2CCCCC2)c1)c1ccccn1` and give its measured growth.
Output: 111

Task: Consider the compound `Cc1ccccc1OCC(O)COc1ccccc1C` and give its measured growth.
Output: 94.9

Task: Consider the compound `Cc1c2cc[nH]c(=O)c2c(C)c2c1[nH]c1ccc(OC(=O)c3ccccc3)cc12` and give its measured growth.
Output: 45

Task: Consider the compound `COc1cccc(/C=C2\COc3ccc(O)cc3C2=O)c1` and give its measured growth.
Output: 65.6

Task: Consider the compound `CN1CCN(c2ccc3c(c2)nc(NNC(=O)c2cnccn2)c2cccn23)CC1` and give its measured growth.
Output: 34.9

Task: Consider the compound `O[C@@H](c1cc(C(F)(F)F)nc2c(C(F)(F)F)cccc12)[C@H]1CCCCN1` and give its measured growth.
Output: 54.8

Task: Consider the compound C=CC(C)(O)CC/C=C(\CO)C(=O)OC1C(C)OC(O[C@](C)(C=C)CC/C=C(\CO)C(=O)O[C@H]2C[C@@]3(C(=O)OC4OC(CO)C(O)C(O)C4OC4OC(C)C(OC5OC(CO)C(O)C5O)C(OC5OC(CO)C(O)C(O)C5O)C4O)C(CC2(C)C)C2=CCC4[C@@]5(C)CC[C@H](OC6OC(COC7OC(C)C(O)C(O)C7OC7OCC(O)C(O)C7O)C(O)C(O)C6NC(C)=O)C(C)(C)C5CC[C@@]4(C)[C@]2(C)C[C@H]3O)C(O)C1O (stereo not given in full) and give its measured growth.
Output: -54.1

Task: Consider the compound `O=c1nc(Nc2nc3ccccc3s2)[nH]c(=O)c2ccccc12` and give its measured growth.
Output: 95.6

Task: Consider the compound `CCSC1=CC(=O)c2ccccc2C1=O` and give its measured growth.
Output: 87.6

Task: Consider the compound `CCOC(=O)CSc1nc2sc3c(c2c(=O)n1-c1ccc([N+](=O)[O-])cc1)CCCCC3` and give its measured growth.
Output: 78.8

Task: Consider the compound `C#Cc1cccc(Nc2nc3ccc([N+](=O)[O-])cc3nc2Nc2cccc(C#C)c2)c1` and give its measured growth.
Output: -19.2

Task: Consider the compound `CCCCCCCC/C=C\CCCCCCCCOc1ccc(CC(=O)NCC[N+](C)(C)C)cc1` and give its measured growth.
Output: 13.4

Task: Consider the compound CO[C@H](C(=O)[C@@H](O)[C@@H](C)O)[C@@H]1Cc2cc3cc(O[C@H]4C[C@@H](O[C@H]5C[C@@H](O)[C@H](O)C(C)O5)[C@H](O)C(C)O4)c(C)c(O)c3c(O)c2C(=O)[C@H]1O[C@H]1C[C@@H](O[C@H]2C[C@@H](O[C@H]3C[C@@H](OC)[C@H](O)C(C)O3)[C@@H](O)C(C)O2)C(O)(O)C(C)O1 (stereo not given in full) and give its measured growth.
Output: 11.8

Task: Consider the compound `COc1ccc(/C=C/C(=O)c2cc3c(N)c(C(=O)Nc4ccccc4C)sc3nc2C)cc1` and give its measured growth.
Output: 6.45

Task: Consider the compound `Cc1ccc(C(=O)c2ccc(CC(=O)N/N=C/c3ccc(O)cc3O)n2C)cc1` and give its measured growth.
Output: 49.4

Task: Consider the compound `CS(=O)(=O)Cc1cnc(C2OCCO2)s1` and give its measured growth.
Output: 112

Task: Consider the compound `COc1cccc(/C=C/C(=O)c2cc3c(N)c(C(=O)Nc4ccccc4C)sc3nc2C)c1` and give its measured growth.
Output: 11.4

Task: Consider the compound `COc1cc(C(=O)c2c(-c3ccccc3)oc3c(OC)cccc23)cc(OC)c1O` and give its measured growth.
Output: 25.8

Task: Consider the compound `CN(C)c1ccc(/C=C2/C=C(c3ccccc3)OC2=O)cc1` and give its measured growth.
Output: 107

Task: Consider the compound `COC(=O)/C=C1/SC(=Nc2cccc(Cl)c2)N(CCc2c[nH]c3ccc(O)cc23)C1=O` and give its measured growth.
Output: 14.3

Task: Consider the compound `c1ccc2cc(Cn3c[n+](Cc4ccc5ccccc5c4)c4ccccc43)ccc2c1` and give its measured growth.
Output: -20.1

----------
tested on: HOP-62 NSCLC; assay: NCI-60 one-dose screen, 48 h (100 = growth as untreated, 0 = no growth, -100 = all killed); details: 10 µM unless noted
This is part of a sample that, as a whole, favours compounds with a hit. Of some 83,000 tested, about 20% had one in any assay.
What growth was measured for each of the following?
Your answer is read as %, so omit the unit and give the number.

Task: Consider the compound `COc1ccc(C2=Nc3c/c(=C\c4c(O)[nH]c5cc(Cl)ccc45)ccc3=N2)cc1` and give its measured growth.
Output: 77.3

Task: Consider the compound `N/C(=N\c1nc2ccccc2s1)NC(=NC1CCCCC1)NC1CCCCC1` and give its measured growth.
Output: 67.7

Task: Consider the compound `CCOC(=O)C(=Cc1cccc(C#N)c1)C(=O)OCC` and give its measured growth.
Output: 115

Task: Consider the compound `CCCCCCNc1nc(NCCCCCC)c2[nH]c(NCCCCCC)nc2n1` and give its measured growth.
Output: 75.7

Task: Consider the compound `CCN1CCN(CC(=O)Nc2nc3ccc(NCc4ccc(Br)cc4)cc3s2)CC1` and give its measured growth.
Output: 64.8

Task: Consider the compound `COc1cccc2c(N=NC(=O)c3ccc(S(N)(=O)=O)cc3)c(O)[nH]c12` and give its measured growth.
Output: 102

Task: Consider the compound `COc1ccc2c(c1)c(-c1nonc1-c1c[nH]c3ccc(Br)cc13)cn2C` and give its measured growth.
Output: 29.6

Task: Consider the compound `CCCCCCOC(=O)CC1=C(C)/C(=C/c2[nH]c(-c3ccc[nH]3)cc2OC)N=C1C` and give its measured growth.
Output: -37.8

Task: Consider the compound `CCOc1ccc(/C=N\N=C\c2ccc(OCC)cc2)cc1` and give its measured growth.
Output: 93

Task: Consider the compound `COC(=O)/C=C1/SC(=Nc2cccc(Cl)c2)N(CCc2c[nH]c3ccc(O)cc23)C1=O` and give its measured growth.
Output: 15.4
